conditions: 293.15 K; 101.33 kPa; Liquid
Outcome: T for mass density of at least 900 kg/m3; F for anything lower.

Smiles Record | Classification
ClC=C(Cl)Cl | T

Would you say "Cc1cccc(C)c1" shows mass density at minimum 900 kg/m3?
F

Would you say "CCCCCCC" shows mass density at minimum 900 kg/m3?
F

Would you say "Cc1ccccc1O" shows mass density at minimum 900 kg/m3?
T

---

test: refractive index (Na D-line) (dimensionless); conditions: 293.15 K; 101.33 kPa; Liquid
Listing of recorded refractive index by entry.
Write the value as a bare number.

Recorded refractive index, per entry:
Smiles Record | refractive index
ClCCCl | 1.4196
Cc1ccccc1C | 1.5055
Cc1ccc(C)cc1 | 1.4858
ClC(Cl)C(Cl)Cl | 1.494

Reported refractive index of "ClC=C(Cl)Cl" : 1.4782

Reported refractive index of "CCCCCCC" : 1.3876

Reported refractive index of "Cc1ccccc1O" : 1.5467

Reported refractive index of "Cc1cccc(C)c1" : 1.4972

Reported refractive index of "ClC(Cl)=C(Cl)Cl" : 1.505

---

Listing of recorded mass density by entry.
conditions: 293.15 K; 101.33 kPa; Liquid
Respond with the bare value in kg/m3.

Smiles Record | Recorded Value
Cc1ccccc1C | 880.1
ClCCCl | 1252.9
Cc1ccc(C)cc1 | 861

Reported mass density of "ClC(Cl)C(Cl)Cl" : 1593

Reported mass density of "ClC(Cl)=C(Cl)Cl" : 1625
